system: Calu-3; experiment: drug sensitivity score (DSS) for viability; higher = more toxic; extreme values may be limits of the assay; conditions: 72 h
Experimental Readout: drug sensitivity score

> print(dat)
                                smiles.data  test.system  test.result
1  CCN1CCN(Cc2ccc(C(=O)Nc3ccc(C)c(Oc4ccc5c(c4)CC(=O)N5)c3)cc2C(F)(F)F)CC1       Calu-3          2.3
2  Nc1nc2c(ncn2[C@@H]2O[C@H](CO)[C@@H](O)[C@H]2O)c(=O)[nH]1       Calu-3            0
3     O=C(O)COC(=O)Cc1ccccc1Nc1c(Cl)cccc1Cl       Calu-3            0
4  C[C@]1(COc2ccc(N3CCC(Oc4ccc(OC(F)(F)F)cc4)CC3)cc2)Cn2cc([N+](=O)[O-])nc2O1       Calu-3            0

---

tested on: A549-ACE2; assay: drug-induced phospholipidosis relative to tamoxifen; higher = more phospholipidosis; settings: 3.33333 µM; 72 h
Experimental Readout: drug-induced phospholipidosis (%)

> print(dat)
                                   compound  test.result
1         O=C(NCc1ccccc1)c1csc(Nc2ccncn2)n1        -3.84
2  CCN1CCN(Cc2ccc(C(=O)Nc3ccc(C)c(Oc4ccc5c(c4)CC(=O)N5)c3)cc2C(F)(F)F)CC1         60.8
3  O=C(NC1CCN(CCCCC2(C(=O)NCC(F)(F)F)c3ccccc3-c3ccccc32)CC1)c1ccccc1-c1ccc(C(F)(F)F)cc1 [lomitapide]         83.5
4  OCCN1CCN(CCCN2c3ccccc3Sc3ccc(C(F)(F)F)cc32)CC1         24.3

---

system: Calu-3; assay: cell viability relative to DMSO; higher = less toxic; conditions: 72 h; 1000 nM
Experimental Readout: cell viability (%)

> print(dat)
                                   molecule  experimental.readout  test.result
1  CN1CCCN=C1COC(=O)C(O)(c1ccccc1)C1CCCCC1 (stereo not drawn)        cell viability         98.8
2  CC(=O)OCC(=O)[C@H]1CC[C@H]2[C@@H]3CCC4=CC(=O)CC[C@]4(C)[C@H]3CC[C@]12C [deoxycorticosterone-acetate]        cell viability         91.9
3  COc1cc(C(=O)N2CCC(N3CCN(C)CC3)CC2)ccc1Nc1ncc2c(n1)N(C)c1ccccc1C(=O)N2C        cell viability         88.1
4  C[C@@H](c1nc(-c2ccc(C#N)cc2)cs1)[C@](O)(Cn1cncn1)c1cc(F)ccc1F        cell viability          101
5  O=C1c2c(O)cccc2C([C@@H]2O[C@H](CO)[C@@H](O)[C@H](O)[C@H]2O)c2cc(CO)cc(O)c21 (stereo partly drawn)        cell viability          104
6           COc1cc2ncnc(Sc3nnc(C)s3)c2cc1OC        cell viability         92.1
7  CCCCN(CC)c1nc(C)nc2c1c(C)c(C)n2-c1c(C)cc(C)cc1C        cell viability           99
8                          Oc1cc(O)c(Cl)cn1        cell viability         98.3
